B1: Intersectin-2, residues 1129 to 1183; numbered along this chain, Q9NZM3 (parent)
chain: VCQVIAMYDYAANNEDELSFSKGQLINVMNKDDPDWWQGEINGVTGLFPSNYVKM

- Variants of: B1
- testDescription: abundance fitness (aPCA) (normalised: wild type 0, dead -1); higher = more abundant; growth selection in yeast, the domain comes from the species named
- conditionParameters: Homo sapiens
Recorded abundance fitness values for a group of variants are listed next.

change: K22Y
abundance fitness: -0.172

change: L47I
abundance fitness: -0.183

change: N30G
abundance fitness: -0.04

change: Q24G
abundance fitness: -0.073

change: D16G
abundance fitness: -0.02

change: S19C
abundance fitness: -0.066

change: N51R
abundance fitness: -0.026

change: V53E
abundance fitness: -0.666

change: D16V
abundance fitness: -0.082
